experiment: Cell Viability - MRC5 (AID 434); details: MRC5 lung fibroblast viability, qHTS;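 also: cells exposed to compound for 40 hours at 37 °C; potency reflects cytotoxicity seen as loss of intracellular ATP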
Results filed as inconclusive are left out. Active and inactive are the calls of the source. Calls follow the shape of the full dose curve.
Respond with a class label; see active, inactive

Worked examples follow.
                                   molecule  category_label
0                                 OC1CCCCC1        inactive
1  Nc1cnn([C@@H]2O[C@H](CO)[C@@H](O)[C@H]2O)c(=O)n1        inactive
2  CC(=O)OC1CC(C)OC(C)O1 (stereo not given)        inactive
3                   NC(=O)Nc1nc2ccccc2[nH]1        inactive
4        CCc1ccc(C(c2ccc(CC)cc2)C(Cl)Cl)cc1        inactive

Please indicate how the test categorized CCC(Cl)CC(Cl)C(Cl)C(Cl)C(Cl)C(C)Cl (stereo not given) .
inactive

Please indicate how the test categorized CCCCC(CC)COCCCN (stereo not given) .
inactive

Please indicate how the test categorized `C=Cc1cccc(C)c1` .
inactive

Please indicate how the test categorized CCCCCCCCC1CO1 (stereo not given) .
inactive

Please indicate how the test categorized `Cc1ccc(N)cc1[N+](=O)[O-]` .
inactive

Please indicate how the test categorized `CC(=O)Nc1cccc(C)c1` .
inactive

Please indicate how the test categorized `CC(C)S` .
inactive

Please indicate how the test categorized `O=C(O)c1cc(N=Nc2ccc([N+](=O)[O-])cc2)ccc1O` .
inactive

Please indicate how the test categorized `O=C(O)/C=C/c1ccc(/C=C/C(=O)O)cc1` .
inactive

Please indicate how the test categorized `Cc1c2ccccc2c(C)c2c1ccc1ccccc12` .
active

====

test: Cellular Toxicity (caspase-3) Jurkat (AID 655); settings: Jurkat caspase-3 activation, luminescence;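 also: cells exposed to compound for 16 h at 37 °C before reading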
Inconclusive results are not listed. The source made the active and inactive calls. Calls follow the shape of the dose curve; as a rule, active = well fitted activation curve with a large enough effect; inconclusive = small, poorly fitted or top-dose-only effect; inactive = flat fitted curve, though single readings scatter.
Respond with a class label; see active, inactive

Worked examples follow.
In [3]: df
Out[3]:
                                   molecule  category_label
0  C=C1CC[C@H](O)C/C1=C/C=C1\CCC[C@]2(C)[C@@H]([C@H](C)CCCC(C)C)CC[C@@H]12          active
1                    c1ccc(SCCSc2ccccc2)cc1        inactive
2        O=[N+]([O-])c1cc(Cl)c(Cl)c(Cl)c1Cl        inactive

# next molecule below
Please indicate how the test categorized `Nc1ccc2c(c1)C(=O)c1ccccc1C2=O` .
inactive

====

Measured activation by item
assay: qHTS assay for small molecule activators of the nuclear factor-kappa B (NF-kB) signaling pathway (AID 651749); conditions: NF-kB-bla ME-180 cells, beta-lactamase FRET ratio, 16 h; hits give high values; also: % of control where 0% means no effect
Results filed as inconclusive are left out. Active and inactive are the calls of the source. Calls come from the whole dose curve; as a rule, active = well fitted activation curve with a large enough effect in the signal ratio; inconclusive = small, poorly fitted or top-dose-only effect, or a change in a side signal; inactive = flat fitted curve, though single readings scatter; the % refers to the signal ratio.

As a guide, the following entries are already answered.
compound	activation
CC1=C(/C=C/C(C)=C/C=C/C(C)=C/C=O)C(C)(C)CCC1	-2.37% (inactive)
Cc1ccc(C(=O)O)cc1[N+](=O)[O-]	-1.02% (inactive)
CC(=O)Nc1cccc(C)c1	-1.12% (inactive)
CC(C)COC(=O)COc1cc(Cl)c(Cl)cc1Cl	-1.07% (inactive)
O=C(Cl)c1ccc([N+](=O)[O-])cc1	-1.16% (inactive)
CC/C=C/C/C=C/C/C=C/CCCCCCCC(=O)OCC	-1.38% (inactive)
NC(=O)Nc1nc2ccccc2[nH]1	-0.124% (inactive)
C[C@@H]1CC2(OC(O)[C@]3(C)O[C@H]23)O[C@H]2C[C@@]3(C)[C@@H]4CC[C@H]5C(C)(C)C(O[C@@H]6OC[C@@H](O)[C@H](O)[C@H]6O)CC[C@@]56C[C@@]46CC[C@]3(C)[C@@H]12 (some centres undefined)	-2.65% (inactive)
c1c[nH]cn1	0.0227% (inactive)
Cc1cc2nc(N)sc2cc1C	-0.263% (inactive)

GET /values?readout=activation&item= `Brc1ccc(-c2ccccc2)cc1`
2.79% (inactive)

GET /values?readout=activation&item= `Cc1cccnc1`
-0.701% (inactive)

GET /values?readout=activation&item= `CCCCCCCCOc1ccc(C(=O)O)cc1`
-0.0346% (inactive)

GET /values?readout=activation&item= Cc1ccccc1OCC1CO1 (centres undefined)
-1.53% (inactive)

====

assay: NFAT Signaling Pathway (AID 444); conditions: Jurkat NFAT-bla M1, carbachol, beta-lactamase ratio, 5 h; at 7.69 µM (top of the series) unless noted;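 also: carbachol stimulus at about its EC50 of 1 µM final; % is scaled to controls: 0 for no effect and ±100 for the full control effect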
Records with an inconclusive call do not appear.
parameter: activity change, negative = inhibition (%)
Report the figure in % without appending any unit label.

As a guide, the following entries are already answered.
In [3]: df
Out[3]:
                                   molecule  measurement_unit  reported_measurement
0           c1nc(NCCc2cnc[nH]2)c2[nH]cnc2n1                 %                  6.94
1  Cc1cc2nc([C@H](C)C(=O)c3ccc(Cl)cc3)c(=O)[nH]c2cc1C                 %                 -5.22
2                     c1ccc(CCNc2ccccn2)nc1                 %                  2.35
3            O=C1CCC(c2ccccc2)(c2ccccc2)CC1                 %                  -2.6
4  OC[C@@H](O)[C@@H](O)[C@@H](O)[C@@H](O)c1nc2ccc(Cl)cc2[nH]1                 %                  10.1

GET /values?readout=activity change, negative = inhibition&item= `CN(C)CCNS(=O)(=O)N(C)C`
3.58

GET /values?readout=activity change, negative = inhibition&item= O=[N+]([O-])c1ccc(CS(=O)Cc2ccccc2)cc1 (configuration not stated)
-22

====

molecular target: Estrogen receptor (Homo sapiens); assay: qHTS assay for small molecule antagonists of estrogen receptor alpha signaling (AID 588513); details: ER-alpha-UAS-bla HEK293, beta-lactamase ratio, antagonist mode; series mostly up to 76.9 µM; also: % is scaled to controls: 0 for no effect and ±100 for the full control effect
Results filed as inconclusive are left out. Activity calls are given as the source filed them. Calls come from the whole dose curve; as a rule, active = well fitted curve in the direction sought with a large enough effect in the signal ratio, with a control signal flat (not every such curve was filed as active); inconclusive = small, poorly fitted or top-dose-only effect, or effect the other way, or a change in a side signal; inactive = no such curve, though single readings can be large or run the other way; the % refers to the signal ratio.
parameter: outcome

As a guide, the following entries are already answered.
                                chem_smiles             target_or_test_system  reported_measurement
0                  C=CC(=O)OCCCCCCOC(=O)C=C  Estrogen receptor (Homo sapiens)              inactive
1  Oc1cc2c(cc1O)[C@H]1c3ccc(O)c(O)c3OC[C@@]1(O)C2  Estrogen receptor (Homo sapiens)              inactive
2                       Oc1cc(Cl)cc(Cl)c1Cl  Estrogen receptor (Homo sapiens)              inactive
3  Cc1c(C(=O)O)c(O)cc2c1C(=O)c1c(O)c([C@H]3O[C@H](CO)[C@@H](O)[C@H](O)[C@H]3O)c(O)c(O)c1C2=O  Estrogen receptor (Homo sapiens)              inactive
4     Brc1cc(Br)c(Oc2cc(Br)c(Br)cc2Br)cc1Br  Estrogen receptor (Homo sapiens)              inactive

Continue with the next compound.
GET /values?readout=outcome&item= `CC(C)(C)C(=O)C1C(=O)c2ccccc2C1=O`
inactive

====

test: NFAT Signaling Pathway (AID 444); conditions: Jurkat NFAT-bla M1, carbachol, beta-lactamase ratio, 5 h; at 7.69 µM (top of the series) unless noted;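 also: carbachol stimulus at about its EC50 of 1 µM final; % is scaled to controls: 0 for no effect and ±100 for the full control effect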
Inconclusive results are not listed. Calls of active or inactive are those of the source. Calls come from the whole dose curve; as a rule, active = well fitted curve in either direction with a large enough effect (not every such curve was filed as active); inconclusive = small, poorly fitted or top-dose-only effect, or another doubt; inactive = flat fitted curve, though single readings scatter.
parameter: activity change, negative = inhibition

As a guide, the following entries are already answered.
>>> print(df.to_string())
                                chem_smiles  reported_measurement
0                             OCCSCc1ccccc1      3.48% (inactive)
1  O=C1C2=C(Nc3cc([N+](=O)[O-])ccc3N2)O[C@@H]1c1ccc([C@H]2OC3=C(Nc4ccc([N+](=O)[O-])cc4N3)C2=O)cc1      4.88% (inactive)
2  Cn1c(=O)c2c(ncn2CN2CCN(Cn3cnc4c3c(=O)n(C)c(=O)n4C)CC2)n(C)c1=O       7.2% (inactive)
3       S=c1[nH]nc(SCc2ccccc2Cl)c2[nH]cnc12     0.186% (inactive)
4   CCNc1ncc2nc(-c3ccccc3)c(=O)n(C3CC3)c2n1      23.2% (inactive)
5  c1ccc2c(c1)C(=Nc1ccc(N=C3c4ccccc4-c4ccccc43)cc1)c1ccccc1-2      10.5% (inactive)

GET /values?readout=activity change, negative = inhibition&item= `COCCn1c(=O)c(-c2cc(F)cc(F)c2)nc2cnc(Oc3ccccc3)nc21`
-3.81% (inactive)

GET /values?readout=activity change, negative = inhibition&item= `COc1cc(CN2CCCCC2)cc2cc(C(=O)O)c(=O)oc12`
15.7% (inactive)

GET /values?readout=activity change, negative = inhibition&item= `Nc1c2c(nc3ccccc13)CCC[C@H]2O`
0.441% [at 38 µM] (inactive)

GET /values?readout=activity change, negative = inhibition&item= `CS(=O)(=O)Nc1cccc(-c2nc(NCc3cccnc3)c3ccccc3n2)c1`
23.6% (inactive)
